B1: TRIM35 (parent)
chain: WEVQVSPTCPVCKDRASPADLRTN

Variants of: B1
PROCEDURE SUMMARY: protein stability index of a GFP-peptide fusion (GPS, HEK-293T) (PSI 1-6); higher = more stable;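 further: lentivirally expressed fusions sorted by FACS into six bins by GFP to DsRed ratio, PSI derived from sequencing read proportions per bin multiplied by bin number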
PARTICULARS: c terminus: a fixed tail appended
Documented protein stability index across a set of variants
Keep it simple and answer with nothing but the number.

Recorded protein stability index for WEVQVSPTCPVCKDRASAADLRTN , please? 2.04

Recorded protein stability index for WEVQVSPTCPVCKDRASPAALRTN , please? 2.02

Recorded protein stability index for WEVQVSPTCAVCKDRASPADLRTN , please? 1.25

Recorded protein stability index for WEVQVSPTCPWCKDRASPADLRTN , please? 2.88
